- assay.setup: 293.15 K; 101.3 kPa; Liquid
quantity.kind: viscosity (mPa·s)

Examples with answers:
INSERT INTO results (molecule, unit_text, data_value) VALUES
  ('CCCCCO', 'mPa·s', 3.979),
  ('CO', 'mPa·s', 0.591),
  ('CCOC(=O)OCC [diethyl carbonate]', 'mPa·s', 0.795),
  ('CC(C)O', 'mPa·s', 2.386),
  ('CCC(C)O (stereo not drawn)', 'mPa·s', 3.619),
  ('CCCCO', 'mPa·s', 2.941);

[1] CCO
[2] CCCO
In: Between these two entries, 1 and 2 , state which has the higher viscosity. Give the chosen item's label as your response.
Out: 2
(2: 2.198 mPa·s, 1: 1.194 mPa·s)
